assay: Tmax of aliskiren hemifumarate following 2 week oral dosing of aliskiren hemifumarate at 50 mg.Kg-1 level studied on day 1 in male Callithrix jacchus; type: ADME, organism-based; details: marmoset, plasma
EXPERIMENTAL READOUT: Tmax (h)

COCCCOc1cc(C[C@@H](C[C@H](N)[C@@H](O)C[C@H](C(=O)NCC(C)(C)C(N)=O)C(C)C)C(C)C)ccc1OC.COCCCOc1cc(C[C@@H](C[C@H](N)[C@@H](O)C[C@H](C(=O)NCC(C)(C)C(N)=O)C(C)C)C(C)C)ccc1OC.O=C(O)/C=C/C(=O)O [ALISKIREN FUMARATE] = 1

###

assay: Tmax of aliskiren hemifumarate following 2 week oral dosing of aliskiren hemifumarate at 100 mg.Kg-1 level studied on day 1 in female Callithrix jacchus; format: ADME, organism-based; conditions: marmoset, plasma
EXPERIMENTAL READOUT: Tmax (h)

COCCCOc1cc(C[C@@H](C[C@H](N)[C@@H](O)C[C@H](C(=O)NCC(C)(C)C(N)=O)C(C)C)C(C)C)ccc1OC.COCCCOc1cc(C[C@@H](C[C@H](N)[C@@H](O)C[C@H](C(=O)NCC(C)(C)C(N)=O)C(C)C)C(C)C)ccc1OC.O=C(O)/C=C/C(=O)O [ALISKIREN FUMARATE] = 1
